assay: chemical genetic growth profiling, strain panel (AID 1159580);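 further: tested at 20 µM; growth read once vehicle control cultures reached saturation at 30 °C; 1 = growth at the plate median or of vehicle wells; lower values mean less growth of the strain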; settings: S. cerevisiae deletion strains, growth OD, locus YPR141C, strain kar3, hits give low values
Out of some 5,500 compounds screened, about 2,000 (36%) were called active. Roughly 18% stayed inconclusive and do not appear here. Some of the results follow.
The entries below come with measured normalized growth values attached.
Quantity: normalized growth

compound=Cc1ccc(O)cc1 readout_value=1
compound="CC(=O)O[C@]1(C(C)=O)CCC2C3C=C(C)C4=CC(=O)CCC4(C)C3CCC21C (stereo not given in full)" readout_value=0.972
compound="CCCCCC(=O)O[C@]1(C(C)=O)CCC2C3CCC4=CC(=O)CC[C@]4(C)C3CC[C@@]21C (stereo not given in full)" readout_value=1.01
compound=COC(=O)COc1ccc(Cl)cc1Cl readout_value=1.01
compound=O=C(O)COc1cc(Cl)c(Cl)cc1Cl readout_value=1.03

---

test: chemical genetic growth profiling, strain panel (AID 1159580);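 further: tested at 20 µM; growth read once vehicle control cultures reached saturation at 30 °C; 1 = growth at the plate median or of vehicle wells; lower values mean less growth of the strain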; conditions: S. cerevisiae deletion strains, growth OD, locus YDR388W, hits give low values
Screen size: about 5,500 compounds; about 2,000 (36%) were called active. Inconclusive results (about 18%) are left out. This is one part of the list.
Quantity: normalized growth

molecule=CCc1nc(N)nc(N)c1-c1ccc(Cl)cc1 readout_value=0.974
molecule=Cc1cc(=O)c2c(O)cc(O)c(C)c2o1 readout_value=0.98
molecule=COc1ccc(-c2coc3c(OC)c(O)ccc3c2=O)cc1 readout_value=0.965
molecule=C=CCc1ccc2c(c1)OCO2 readout_value=0.987
molecule=COc1ccc(-c2coc3c(OC)c(OC)ccc3c2=O)cc1 readout_value=1
molecule="CC1(C)C2CC[C@]3(C)C(C(=O)C=C4[C@H]5C[C@@](C)(C(=O)O)CC[C@]5(C)CC[C@]43C)[C@@]2(C)CC[C@@H]1O (stereo partly drawn)" readout_value=1.01
molecule=C/C=C(/C(=C/C)c1ccc(O)cc1)c1ccc(O)cc1 readout_value=0.589
molecule=COc1c2c(c(CC=C(C)C)c3oc(=O)c(-c4ccc(O)cc4)c(O)c13)OC(C)(C)C=C2 readout_value=0.912
molecule=COC(=O)COc1ccc(Cl)cc1Cl readout_value=1.02
molecule="O=C(O)C1C(O)CCC2CN3CCc4c([nH]c5ccccc45)C3CC21 (stereo not drawn)" readout_value=1.01
molecule=Cc1cc(C(C)(C)CC(C)(C)C)ccc1OCCOCC[N+](C)(C)Cc1ccccc1 readout_value=0.0542
molecule=COc1ccc([C@@H]2CC(=O)c3c(O)cc(O)cc3O2)cc1O readout_value=1
molecule=CCCCOc1ccc(OCCCN2CCOCC2)cc1 readout_value=0.9
molecule="NC[C@@H]1O[C@H](O[C@@H]2[C@@H](CO)OC(O[C@@H]3[C@@H](O)[C@H](N)C[C@H](N)[C@H]3OC3O[C@H](CN)[C@@H](O)[C@H](O)[C@H]3N)[C@@H]2O)[C@H](N)[C@@H](O)[C@@H]1O (stereo partly drawn)" readout_value=1.01
molecule=S=C=NCc1ccccc1 readout_value=0.061
molecule=COc1ccc(-c2coc3c(OC)c(OC)cc(OC)c3c2=O)cc1 readout_value=1.01
molecule=Cc1c(O)cc(O)c2c(=O)c(-c3ccc(O)cc3)coc12 readout_value=1.01
molecule=COc1ccc(-c2coc3c(OC)c(OC)cc(O)c3c2=O)cc1 readout_value=0.974
molecule="Cc1ccc(C(=O)C(C)CN2CCCCC2)cc1 (stereo not drawn)" readout_value=1.02
molecule=NC(=O)c1ncn([C@@H]2O[C@H](CO)[C@@H](O)[C@H]2O)c1O readout_value=1
molecule=C[C@@H]1O[C@@H](O[C@H]2[C@@H](Oc3cc(O)c4c(c3)O[C@H](c3ccc(O)cc3)CC4=O)O[C@H](CO)[C@@H](O)[C@@H]2O)[C@H](O)[C@H](O)[C@H]1O readout_value=1
molecule="OCC(O)Cc1ccc2c(c1)OCO2 (stereo not drawn)" readout_value=1
molecule=O=c1ccc2ccccc2o1 readout_value=0.988
molecule=N#Cc1c(Cl)c(Cl)c(Cl)c(C#N)c1Cl readout_value=0.97
molecule=CC(C)N(C(=O)CCl)c1ccccc1 readout_value=1.02
molecule=Oc1c(Cl)c(Cl)c(Cl)c(Cl)c1Cl readout_value=0.763
molecule=OC(CCN1CCCCC1)(c1ccccc1)c1ccccc1 readout_value=1.01
molecule=COc1ccc(-c2coc3c(O)c(OC)ccc3c2=O)cc1 readout_value=0.944
molecule=Cc1c(N(C)C)c(=O)n(-c2ccccc2)n1C readout_value=0.998
molecule=O=C1C[C@@H](c2ccc(O)cc2)Oc2cc(O)cc(O)c21 readout_value=1.01
molecule="CC1(C)C2CC[C@]3(C)C(C(=O)C=C4[C@@H]5C[C@@](C)(C(=O)O)CC[C@]5(C)CC[C@]43C)[C@@]2(C)CC[C@@H]1O (stereo partly drawn)" readout_value=1.01
molecule=CC(C)(C)CC(C)(C)c1ccc(OCCOCC[N+](C)(C)Cc2ccccc2)cc1 readout_value=1
molecule=Cc1cc(=O)c2c(O)c(C)c(O)cc2o1 readout_value=0.988
molecule=CCC1(c2ccccc2)C(=O)NCNC1=O readout_value=0.998
molecule=C1CCc2nnnn2CC1 readout_value=1
molecule=COc1c(O)cc2oc3cc(O)c(CC=C(C)C)c(O)c3c(=O)c2c1CC=C(C)C readout_value=0.833
molecule="O=C1CC(c2ccccc2)Oc2ccccc21 (stereo not drawn)" readout_value=0.96
molecule="CCC(C(=O)O)c1ccccc1 (stereo not drawn)" readout_value=0.996

---

test: chemical genetic growth profiling, strain panel (AID 1159580);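 further: tested at 20 µM; growth read once vehicle control cultures reached saturation at 30 °C; 1 = growth at the plate median or of vehicle wells; lower values mean less growth of the strain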; conditions: S. cerevisiae deletion strains, growth OD, locus YDR001C, strain nth1, hits give low values
Screen size: about 5,500 compounds; about 2,000 (36%) were called active. About 18% were inconclusive and are not listed. This is one part of the list.
The entries below come with measured normalized growth values attached.
Quantity: normalized growth

molecule=CC(C)[C@H](N)C(=O)OCCOCn1cnc2c(=O)[nH]c(N)nc21 readout_value=1.01
molecule=COc1ccc2cc1Oc1ccc(cc1)C[C@H]1c3cc(c(OC)cc3CCN1C)Oc1c(OC)c(OC)cc3c1[C@H](C2)N(C)CC3 readout_value=1.02
molecule=COc1ccc([C@@H]2CC(=O)c3c(O)cc(O)cc3O2)cc1O readout_value=0.973
molecule=COc1cccc([C@]2(O)CCCC[C@H]2CN(C)C)c1 readout_value=0.963
molecule=O=[N+]([O-])O[C@H]1CO[C@H]2[C@@H]1OC[C@H]2O[N+](=O)[O-] readout_value=0.991
molecule="O=C1CC(c2ccc(O)c(O)c2)Oc2cc(O)cc(O)c21 (centres undefined)" readout_value=1.01
molecule=O=C(O)c1cc(=O)c2ccc(Cl)cc2[nH]1 readout_value=1.01
molecule=NC(N)=NOCC[C@H](N)C(=O)O readout_value=1.01
molecule=COc1cc(O)c2c(=O)cc(C)oc2c1CC=C(C)C readout_value=0.979
molecule=C[C@@H]1O[C@@H](O[C@H]2[C@@H](Oc3cc(O)c4c(c3)O[C@H](c3ccc(O)cc3)CC4=O)O[C@H](CO)[C@@H](O)[C@@H]2O)[C@H](O)[C@H](O)[C@H]1O readout_value=0.954
molecule="CN1C2CC3C[C@H]1C(O3)C2O (some centres undefined)" readout_value=1.02
molecule="C[N+](C)(C)CCOP(=O)([O-])OP(=O)(O)OC[C@H]1OC(n2ccc(N)nc2=O)[C@H](O)[C@@H]1O (some centres undefined)" readout_value=0.978
molecule=O=C(/C=C/c1ccccc1)O[C@H]1C[C@@H](O)[C@]2(O)C=CO[C@@H](O[C@@H]3O[C@H](CO)[C@@H](O)[C@H](O)[C@H]3O)[C@H]12 readout_value=1.02
molecule="CC(=O)O[C@H]1C(=O)[C@@]2(C)C([C@H](OC(=O)c3ccccc3)[C@]3(O)C[C@H](OC(=O)[C@H](O)[C@@H](NC(=O)c4ccccc4)c4ccccc4)C(C)=C1C3(C)C)[C@]1(OC(C)=O)CO[C@@H]1C[C@@H]2O (some centres undefined)" readout_value=1.02

---

The entries below come with measured normalized growth values attached.
assay: chemical genetic growth profiling, strain panel (AID 1159580);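 further: tested at 20 µM; growth read once vehicle control cultures reached saturation at 30 °C; 1 = growth at the plate median or of vehicle wells; lower values mean less growth of the strain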; settings: S. cerevisiae deletion strains, growth OD, locus YHR079C, strain IRE1, hits give low values
About 2,000 (36%) of roughly 5,500 compounds were called active. About 18% were inconclusive and are not listed. The list shows a part of the results.
Quantity: normalized growth

compound="CC(=O)O[C@H]1C(=O)[C@@]2(C)C([C@H](OC(=O)c3ccccc3)[C@]3(O)C[C@H](O)C(C)=C1C3(C)C)[C@]1(OC(C)=O)CO[C@@H]1C[C@@H]2O (stereo partly specified)" readout_value=0.995
compound="CC(C)(CO)C(O)C(=O)NCCCO (stereo unspecified)" readout_value=1.01
compound="C[N+](C)(C)CCOP(=O)([O-])OP(=O)(O)OC[C@H]1OC(n2ccc(N)nc2=O)[C@H](O)[C@@H]1O (stereo partly specified)" readout_value=1.01
compound=CC(C)(N=NC(C)(C)C(=N)N)C(=N)N readout_value=0.971
compound=COc1ccc(-c2coc3c(O)c(OC)ccc3c2=O)cc1 readout_value=1.01
compound="CC(=O)O[C@H]1C(=O)[C@@]2(C)C([C@H](OC(=O)c3ccccc3)[C@]3(O)C[C@H](OC(=O)[C@H](O)[C@@H](NC(=O)c4ccccc4)c4ccccc4)C(C)=C1C3(C)C)[C@]1(OC(C)=O)CO[C@@H]1C[C@@H]2O (stereo partly specified)" readout_value=1
